Property: mortality of fleas; scope: individual molecules
tested on: Adult Ctenocephalides felis; assay: Test on cat fleas / oral absorption; type: in vivo; details: 10 ppm in citrated cow's blood, after 24 hours
Reply with just the number (in %).

Worked examples, 3 molecules total:
Molecule	mortality of fleas [%]
CCC(C)C1OC2(C=CC1C)CC1CC(CC=C(C)C(OC3CC(OC)C(OC4CC(OC)C(=CCO)C(C)O4)C(C)O3)C(C)C=CC=C3COC4C(O)C(C)=CC(C(=O)O1)C34O)O2 (centres unmarked)	42
CCC(C)C1OC2(C=CC1C)CC1CC(CC=C(C)C(OC3CC(OC)C(OC4CC(OC)C(=CC(=O)OC)C(C)O4)C(C)O3)C(C)C=CC=C3COC4C(O)C(C)=CC(C(=O)O1)C34O)O2 (centres unmarked)	61
CCOC(=O)C=C1C(C)OC(OC2C(C)OC(OC3C(C)=CCC4CC(CC5(C=CC(C)C(C(C)CC)O5)O4)OC(=O)C4C=C(C)C(O)C5OCC(=CC=CC3C)C45O)CC2OC)CC1OC (centres unmarked)	50

In: # return recorded mortality of fleas for entry CCC(C)C1OC2(C=CC1C)CC1CC(CC=C(C)C(OC3CC(OC)C(OC4CC(OC)C(=CC(=O)O)C(C)O4)C(C)O3)C(C)C=CC=C3COC4C(O)C(C)=CC(C(=O)O1)C34O)O2 (centres unmarked)
Out: 69

In: // fetch mortality of fleas given entry CCC(C)C1OC2(C=CC1C)CC1CC(CC=C(C)C(OC3CC(OC)C(OC4CC(OC)C(=CC(=O)O)C(C)O4)C(C)O3)C(C)C=CC=C3COC4C(=NO)C(C)=CC(C(=O)O1)C34O)O2 (centres unmarked)
Out: 73
